Target: UniProt:P08485
Sequence (whole entry): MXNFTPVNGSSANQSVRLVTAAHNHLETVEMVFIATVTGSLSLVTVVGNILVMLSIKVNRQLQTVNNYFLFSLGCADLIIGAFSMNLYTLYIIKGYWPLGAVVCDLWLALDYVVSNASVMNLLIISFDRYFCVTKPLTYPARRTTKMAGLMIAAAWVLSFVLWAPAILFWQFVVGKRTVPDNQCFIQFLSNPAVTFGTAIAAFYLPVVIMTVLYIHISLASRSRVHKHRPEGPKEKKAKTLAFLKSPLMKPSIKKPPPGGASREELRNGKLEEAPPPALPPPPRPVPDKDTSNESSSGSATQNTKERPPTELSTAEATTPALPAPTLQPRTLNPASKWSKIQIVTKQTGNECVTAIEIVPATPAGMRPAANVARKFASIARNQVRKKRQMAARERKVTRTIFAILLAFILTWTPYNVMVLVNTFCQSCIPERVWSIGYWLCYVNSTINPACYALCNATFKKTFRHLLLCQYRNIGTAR
Experiment: Percent inhibition against muscarinic acetylcholine receptor M4 from NG108-15 cell line
Type: cell-based
Parameters: concentration or dose not given beside the values
# Activity listing for each entry below
Report the value in % with no unit label.

Example cases with answers are listed next.
> print(dat)
                           structure.smiles  value
1                    CC(=O)N(C)CC#CCN1CCCC1   63.2
2                 C[N+](C)(C)CC#CCN1CCCC1=O   64.1
3           CC(=O)NCCCC(=O)N(C)CC#CCN1CCCC1      8
4  CN(CC#CCN1CCCC1)C(=O)CCCCCN.O=C(O)C(F)(F)F.O=C(O)C(F)(F)F   14.3

Turning now to a further compound:
Q: Fill blank: measured Activity of the compound CC(=O)NCCCCCC(=O)N(C)CC#CCN1CCCC1 is ____.
Ans: 3

###

Molecular target: Muscarinic acetylcholine receptor
Test: Binding affinity was determined using [3H]-NMS for Muscarinic acetylcholine receptor in SK-N-SH neuroblastoma cells
Format: cell-based, Homo sapiens
# log10 of Ki listing for each entry below
The common logarithm of Ki in µM is what is listed.

Example cases with answers are listed next.
> print(dat)
                                   molecule  value
1  CN(CC#CCN1CCCC1)C(=O)CCCCCCN.O=C(O)C(F)(F)F.O=C(O)C(F)(F)F   0.83
2                    CC(=O)N(C)CC#CCN1CCCC1   0.70
3  CN(CC#CCN1CCCC1)C(=O)CCCCCCCNC(=O)OC(C)(C)C.O=C(O)C(=O)O   0.69
4  CN(CC#CCN1CCCC1)C(=O)CCCCCCCN.O=C(O)C(F)(F)F.O=C(O)C(F)(F)F   0.15
5  CC(=O)N(C)C(C)C#CCN1CCCC1 (stereo unspecified)  -0.48

Turning now to a further molecule:
Q: Fill blank: measured log10 of Ki of the molecule CN(CC#CCN1CCCC1)C(=O)CCCCCCNC(=O)OC(C)(C)C.O=C(O)C(=O)O is ____.
Ans: 1.04

###

Target: Muscarinic acetylcholine receptor M3 (Homo sapiens) (UniProt P20309)
Sequence (P20309 whole entry, looked up): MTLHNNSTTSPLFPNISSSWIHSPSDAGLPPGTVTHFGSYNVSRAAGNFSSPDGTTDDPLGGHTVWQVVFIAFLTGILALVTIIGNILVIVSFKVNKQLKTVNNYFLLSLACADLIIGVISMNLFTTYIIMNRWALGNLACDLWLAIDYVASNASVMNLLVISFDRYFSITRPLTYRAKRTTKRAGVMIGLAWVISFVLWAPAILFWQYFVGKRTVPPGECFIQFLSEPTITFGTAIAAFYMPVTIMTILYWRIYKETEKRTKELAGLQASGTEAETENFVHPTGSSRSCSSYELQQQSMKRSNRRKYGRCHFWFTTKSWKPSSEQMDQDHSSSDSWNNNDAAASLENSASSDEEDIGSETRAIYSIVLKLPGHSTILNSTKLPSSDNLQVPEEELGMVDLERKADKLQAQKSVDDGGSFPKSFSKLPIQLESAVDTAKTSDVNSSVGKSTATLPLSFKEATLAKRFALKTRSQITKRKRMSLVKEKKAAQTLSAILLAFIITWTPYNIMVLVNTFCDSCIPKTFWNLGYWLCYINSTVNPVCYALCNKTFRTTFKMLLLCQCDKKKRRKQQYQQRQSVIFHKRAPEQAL
Assay: Percent increase in [3H]myo-inositol at muscarinic acetylcholine receptor M3 from SK-N-SH human neuroblastoma cells
Format: cell-based
Parameters: concentration or dose not given beside the values
experimental.endpoint: Activity

Example cases with answers are listed next.
> print(dat)
                           structure.smiles  value
1  CN(CC#CCN1CCCC1)C(=O)CCCCCCCN.O=C(O)C(F)(F)F.O=C(O)C(F)(F)F   < 1%
2          CN(CC#CCN1CCCC1)C(=O)CCCNC(=O)CN     7%

Q: Fill blank: measured Activity of the molecule CN(CC#CCN1CCCC1)C(=O)CCCCCN.O=C(O)C(F)(F)F.O=C(O)C(F)(F)F is ____.
Ans: < 1%

Q: Same read-out for CN(CC#CCN1CCCC1)C(=O)CCC(=O)O ?
Ans: < 1%

Q: Same read-out for CC(=O)NCCC(=O)N(C)CC#CCN1CCCC1.O=C(O)C(=O)O ?
Ans: < 1%

Q: Same read-out for CN(CC#CCN1CCCC1)C(=O)CCCCCNC(=O)CCNC(=O)OC(C)(C)C ?
Ans: < 1%

Q: Same read-out for CC(=O)NCCCCC(=O)N(C)CC#CCN1CCCC1 ?
Ans: < 1%

Q: Same read-out for CC(=O)NCCCCCCC(=O)N(C)CC#CCN1CCCC1 ?
Ans: 1%

Origin of values: ChEMBL document CHEMBL1124832
